subject-of-test: 5HT3 Receptor (Homo sapiens, UniProt P46098)
Sequence (P46098 24-478): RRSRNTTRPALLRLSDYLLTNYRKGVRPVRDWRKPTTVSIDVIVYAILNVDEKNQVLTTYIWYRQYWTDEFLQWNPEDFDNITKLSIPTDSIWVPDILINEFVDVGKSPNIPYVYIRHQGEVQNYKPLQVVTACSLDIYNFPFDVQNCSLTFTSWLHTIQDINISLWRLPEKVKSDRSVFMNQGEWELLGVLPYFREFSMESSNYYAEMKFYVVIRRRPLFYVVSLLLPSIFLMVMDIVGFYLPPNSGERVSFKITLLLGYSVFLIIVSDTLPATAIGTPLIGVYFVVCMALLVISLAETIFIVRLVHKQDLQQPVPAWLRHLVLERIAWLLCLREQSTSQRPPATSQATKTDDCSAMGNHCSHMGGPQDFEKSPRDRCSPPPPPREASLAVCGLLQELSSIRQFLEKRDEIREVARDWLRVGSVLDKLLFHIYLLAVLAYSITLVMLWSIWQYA
protocol-notes: 5HT3 Receptor Binding Assay
Where a name gives a salt, the structure may show the parent alone.
quantity-kind: IC50 (µM)
# value in µM; strip the unit string

Query: For the compound CCCN(c1ccncc1)c1csc2ncccc12 [hydrochloride] , give its reported IC50.
Response: 4.6

* * *

subject-of-test: glycine binding site associated with the N-methyl-D-aspartate (NMDA) receptor complex (Rattus norvegicus)
Construct: Cortices of male Wistar rats are dissected over ice
protocol-notes: Displacement of [^3 H]Glycine Binding
quantity-kind: pIC50
pIC50 is a log-scale quantity: -log10 of the concentration expressed in molar.

Query: Please report pIC50 for the following molecule: `NCC(=O)Nc1csc2ncccc12`
Response: 4.66
